Setup Conditions: 298.15 K; 101.33 kPa; Liquid
Parameter: mass density (kg/m3)

COC(C)(C)C [2-methoxy-2-methylpropane]: 735.99
C1CCOC1 [tetrahydrofuran]: 882.09
CC1CCCO1 (centres undefined) [2-methyltetrahydrofuran]: 848.1
C=CCCCC [hex-1-ene]: 668.73
